# reported pIC50; entries follow
# target-or-test-system: recombinant CETP (rCETP) (Homo sapiens)
# Sequence (P11597 18-493): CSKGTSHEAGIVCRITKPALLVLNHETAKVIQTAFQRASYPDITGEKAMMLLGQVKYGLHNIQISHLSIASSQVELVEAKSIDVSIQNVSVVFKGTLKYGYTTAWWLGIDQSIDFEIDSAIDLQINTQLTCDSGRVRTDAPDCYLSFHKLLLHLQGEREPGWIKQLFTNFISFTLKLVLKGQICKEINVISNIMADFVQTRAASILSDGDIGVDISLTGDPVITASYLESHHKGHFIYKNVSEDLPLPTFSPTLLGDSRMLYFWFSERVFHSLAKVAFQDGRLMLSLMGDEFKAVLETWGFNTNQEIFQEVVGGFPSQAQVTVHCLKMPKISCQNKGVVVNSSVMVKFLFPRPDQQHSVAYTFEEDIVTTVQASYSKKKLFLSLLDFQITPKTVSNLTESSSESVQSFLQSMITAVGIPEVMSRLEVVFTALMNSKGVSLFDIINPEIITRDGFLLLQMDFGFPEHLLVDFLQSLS
# protocol: RTA assay using recombinant CETP (2% RTA)
# Type: biochemical
# measurement-context: RTA assay in 2% human serum; read-out: IC50
Notebook: values listed as pIC50 are -log10 of the concentration (mol/L).

Some compounds with recorded pIC50:
[[record]]
compound = "CCOC(=O)C[C@@H]1CCc2cc(OC)c(-c3ccc(N4CCC4)nc3CN3C(=O)O[C@H](c4cccc(C(F)(F)F)c4)[C@@H]3C)cc21"
value_observed = 6.94

[[record]]
compound = "COc1ccc([C@@H]2CC[C@@H](C(=O)O)C2)cc1-c1ccc(N2CCC2)nc1CN1C(=O)O[C@H](c2cc(C(F)(F)F)cc(C(F)(F)F)c2)[C@@H]1C (single isomer, unassigned) [Example 239]"
value_observed = 8.15

[[record]]
compound = "COc1cc(F)c(-c2cc(C(F)(F)F)c(C(=O)O)cn2)cc1-c1cnc(N2CC(F)(F)C2)nc1CN1C(=O)O[C@H](c2cc(C(F)(F)F)cc(C(F)(F)F)c2)[C@@H]1C"
value_observed = 6.84

[[record]]
compound = "COc1ccc([C@H]2CC[C@H](C(=O)O)CC2)cc1-c1cnc(N2CC(F)(F)C2)nc1CN1C(=O)O[C@H](c2cc(C(F)(F)F)cc(C(F)(F)F)c2)[C@@H]1C"
value_observed = 8.00

[[record]]
compound = "COC(=O)c1ccc(-c2ccc(OC)c(-c3ccc(N4CCC4)nc3CN3C(=O)O[C@H](c4cc(C(F)(F)F)cc(C(F)(F)F)c4)[C@@H]3C)c2)nc1"
value_observed = 6.71

[[record]]
compound = "COc1ccc(CCC(=O)O)cc1-c1ccc(N2CCC2)nc1CN1C(=O)O[C@H](c2cc(C(F)(F)F)cc(C(F)(F)F)c2)[C@@H]1C"
value_observed = 7.96

[[record]]
compound = "COc1ccc(CCC(=O)O)cc1-c1ccc(N2CCC2)nc1CN1C(=O)O[C@H](c2cccc(C)c2)[C@@H]1C"
value_observed = 6.54

[[record]]
compound = "COc1ccc([C@H]2CC[C@H](C(=O)O)CC2)cc1-c1cnc(N2CCC2)nc1CN1C(=O)O[C@H](c2cccc(C(F)(F)F)c2)[C@@H]1C"
value_observed = 6.78

[[record]]
compound = "COc1ccc([C@H]2C[C@@H]2C(=O)O)cc1-c1ccc(N2CCC2)nc1CN1C(=O)O[C@H](c2cc(F)cc(F)c2)[C@@H]1C"
value_observed = 7.14

[[record]]
compound = "COc1cc2c(cc1-c1ccc(N3CCC3)nc1CN1C(=O)O[C@H](c3cccc(C(F)(F)F)c3)[C@@H]1C)[C@H](CC(=O)O)CC2"
value_observed = 6.79


Now for another entry.
Prompt line: pIC50 lookup needed for COc1ccc(-n2ncc(C(=O)O)c2C(F)(F)F)cc1-c1cnc(N2CC(F)(F)C2)nc1CN1C(=O)O[C@H](c2cc(C(F)(F)F)cc(C(F)(F)F)c2)[C@@H]1C , thanks.
Response line: 8.05

The measured values listed here are drawn from patent US9221834B2.
